# Tested on: Klebsiella pneumoniae ATCC 13883
# TEST_METHOD_NOTES: ≥ marks a high value that may be exact or a test limit, other limits are often not marked, values filed in µg/mL are converted to µM
MEASUREMENT_KIND: MIC (µM)
Write down the numeric answer in µM and omit the unit.

Query (compound): CC(C)C[C@H](NC(=O)[C@H](CC(C)C)NC(=O)[C@H](CCCCN)NC(=O)CNC(=O)[C@H](CC(C)C)NC(=O)[C@H](CC(C)C)NC(=O)[C@H](CO)NC(=O)[C@H](CC(C)C)NC(=O)[C@H](CC(C)C)NC(=O)[C@H](CO)NC(=O)[C@H](CC(C)C)NC(=O)[C@H](C)NC(=O)CN)C(N)=O ; field requested: MIC
6.2
